Tested on: MCF7
Assay: Cytotoxicity against human MCF7 cells assessed as cell growth at 5 uM measured at 72 hrs by CyQuant proliferation assay relative to control
Format: functional
Details: MCF7, 72 h, read-out: Activity
result type: growth at 5 µM (%)
Answer format: numeric, % implied, no suffix.

query: Answer with the recorded growth at 5 µM of CNCCCOc1c(Br)cc(CCNC(=O)/C(Cc2ccc(O)c(Br)c2)=N/O)cc1Br only.
result: 100

query: Answer with the recorded growth at 5 µM of CCCCCCC(C)CCCCCCCCC(=O)NCCc1cc(Br)c(OCCCNC(=O)C2=NO[C@@]3(C=C(Br)C(OC)=C(Br)[C@H]3O)C2)c(Br)c1 (some centres undefined) only.
result: 106

query: Answer with the recorded growth at 5 µM of COc1c(Br)cc(C/C(=N\O)C(=O)NCCCOc2c(Br)cc(CCN)cc2Br)c(O)c1Br only.
result: 97

query: Answer with the recorded growth at 5 µM of COC1=C(Br)[C@@H](O)[C@]2(C=C1Br)CC(C(=O)NCCCOc1c(Br)cc(CCNC(=O)CCCCCCCCCCCC(C)C)cc1Br)=NO2 only.
result: 103

* * *

Experiment: Cytotoxicity against mouse NIH/3T3 cells assessed as cell growth at 5 uM measured at 72 hrs by CyQuant proliferation assay relative to control
Type: cell-based, NIH3T3
Details: read-out: Activity
Assign viability at 72 h, 5 µM to each entry below.
Answer format: numeric, % implied, no suffix.

query: Answer with the recorded viability at 72 h, 5 µM of COC1=C(Br)[C@@H](O)[C@]2(C=C1Br)CC(C(=O)NCCCOc1c(Br)cc(CCNC(=N)N)cc1Br)=NO2 only.
result: 100

query: Answer with the recorded viability at 72 h, 5 µM of CNCCCOc1c(Br)cc(CCNC(=O)/C(Cc2ccc(O)c(Br)c2)=N/O)cc1Br only.
result: 99

query: Answer with the recorded viability at 72 h, 5 µM of CCCCCCC(C)CCCCCCCC(=O)NCCc1cc(Br)c(OCCCNC(=O)C2=NO[C@@]3(C=C(Br)C(OC)=C(Br)[C@H]3O)C2)c(Br)c1 (some centres not stated) only.
result: 94

query: Answer with the recorded viability at 72 h, 5 µM of CCCCCCC(C)CCCCCCCCC(=O)NCCc1cc(Br)c(OCCCNC(=O)C2=NO[C@@]3(C=C(Br)C(OC)=C(Br)[C@H]3O)C2)c(Br)c1 (some centres not stated) only.
result: 98

query: Answer with the recorded viability at 72 h, 5 µM of COc1c(Br)cc(C/C(=N\O)C(=O)NCCCOc2c(Br)cc(CCN)cc2Br)c(O)c1Br only.
result: 102

query: Answer with the recorded viability at 72 h, 5 µM of CCCCC(C)CCC/C=C\CCCCCCC(=O)NCCc1cc(Br)c(OCCCNC(=O)C2=NO[C@@]3(C=C(Br)C(OC)=C(Br)[C@H]3O)C2)c(Br)c1 (some centres not stated) only.
result: 100

query: Answer with the recorded viability at 72 h, 5 µM of CNCCCOc1c(Br)cc(CCNC(=O)/C(Cc2cc(Br)c(OC)c(Br)c2)=N/O)cc1Br only.
result: 101

Taken from ChEMBL document CHEMBL3745713.
